Tested System: recombinant GSK3β kinase (Homo sapiens (Human), UniProt P49841)
Sequence (P49841 whole entry): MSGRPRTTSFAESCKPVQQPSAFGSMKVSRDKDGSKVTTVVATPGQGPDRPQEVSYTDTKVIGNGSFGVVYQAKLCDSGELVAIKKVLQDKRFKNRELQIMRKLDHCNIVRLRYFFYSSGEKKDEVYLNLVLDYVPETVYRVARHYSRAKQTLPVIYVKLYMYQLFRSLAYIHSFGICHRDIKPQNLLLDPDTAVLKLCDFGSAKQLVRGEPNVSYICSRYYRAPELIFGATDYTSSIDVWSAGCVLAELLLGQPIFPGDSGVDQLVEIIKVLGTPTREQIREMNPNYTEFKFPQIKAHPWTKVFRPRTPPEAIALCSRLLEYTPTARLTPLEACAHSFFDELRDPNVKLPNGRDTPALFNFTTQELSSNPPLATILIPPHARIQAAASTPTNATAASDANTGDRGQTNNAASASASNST
Protocol Details: GSK3β kinase assay (Ser/Thr 09 peptide Z-lyte FRET)
Run Parameters: 46 μM ATP, 1 h room temperature
Readout: pEC50
# pEC50: negative log10 of molar concentration; output just the value

[[record]]
structure_as_smiles = "CC(C)CN1CCC[C@@H](C(=O)Nc2cc3cc(-c4cnn(C)c4)ccc3cn2)C1"
tested_system = "recombinant GSK3β kinase (Homo sapiens (Human), UniProt P49841)"
numeric_value = 6.23

[[record]]
structure_as_smiles = "Cn1cc(-c2ccc3cnc(NC(=O)C4CCN(CC5(C)COC5)CC4)cc3c2)cn1"
tested_system = "recombinant GSK3β kinase (Homo sapiens (Human), UniProt P49841)"
numeric_value = 7.49

[[record]]
structure_as_smiles = "Cn1cc(-c2ccc3cnc(NC(=O)C4CCN(S(=O)(=O)c5ccccc5)CC4)cc3c2)cn1"
tested_system = "recombinant GSK3β kinase (Homo sapiens (Human), UniProt P49841)"
numeric_value = 6.99

[[record]]
structure_as_smiles = "CN1CCN(CC(=O)Nc2cc3cc(-c4cnn(C)c4)c(F)cc3cn2)CC1"
tested_system = "recombinant GSK3β kinase (Homo sapiens (Human), UniProt P49841)"
numeric_value = 7.10

[[record]]
structure_as_smiles = "Cn1cc(-c2ccc3cnc(NC(=O)CN4C5CCC4CC5)cc3c2)nn1"
tested_system = "recombinant GSK3β kinase (Homo sapiens (Human), UniProt P49841)"
numeric_value = 7.37


Item CC(F)(F)CN1CCC(C(=O)Nc2cc3cc(-c4cncs4)ccc3cn2)CC1 has what recorded pEC50?
7.38

Item CO[C@H]1CC[C@H](C(=O)Nc2cc3cc(-c4cnn(C)c4CN4CCCCC4)ccc3cn2)CC1 has what recorded pEC50?
7.48

Item CN1CCC(N2CCC(C(=O)Nc3cc4cc(-c5cn(C)nn5)ccc4cn3)CC2)CC1 has what recorded pEC50?
8.22

Item [2H]C([2H])(C(=O)Nc1cc2cc(-c3nnc(C)s3)ccc2cn1)N1CCOCC1 has what recorded pEC50?
8.05

###

Tested System: recombinant GSK3β kinase (Homo sapiens (Human), UniProt P49841)
Protocol Details: GSK3β kinase assay (Ser/Thr 09 peptide Z-lyte FRET)
Run Parameters: 46 μM ATP, 1 h room temperature
Readout: EC50 (nM)
Number only, in nM; omit the unit.

Example entries begin here.
[[record]]
structure_as_smiles = "Cn1cc(-c2ccc3cnc(NC(=O)C4CC4)cc3c2)cn1"
tested_system = "recombinant GSK3β kinase (Homo sapiens (Human), UniProt P49841)"
readout = "EC50"
unit_descriptor = "nM"
numeric_value = 8

[[record]]
structure_as_smiles = "Cc1nnc(-c2ccc3cnc(NC(=O)CN4CCOC[C@H]4C)cc3c2)s1"
tested_system = "recombinant GSK3β kinase (Homo sapiens (Human), UniProt P49841)"
readout = "EC50"
unit_descriptor = "nM"
numeric_value = 23

[[record]]
structure_as_smiles = "CN1CCC(C(=O)Nc2cc3cc(-c4cnsc4)ccc3cn2)CC1"
tested_system = "recombinant GSK3β kinase (Homo sapiens (Human), UniProt P49841)"
readout = "EC50"
unit_descriptor = "nM"
numeric_value = 478

[[record]]
structure_as_smiles = "Cn1cc(-c2ccc3cnc(NC(=O)C4(F)CCNCC4)cc3c2)cn1"
tested_system = "recombinant GSK3β kinase (Homo sapiens (Human), UniProt P49841)"
readout = "EC50"
unit_descriptor = "nM"
numeric_value = 838


Now consider the entry below.
Item Cn1cc(-c2ccc3cnc(NC(=O)C4CCN(CC(C)(C)O)CC4)cc3c2)cn1 has what recorded EC50?
50

###

Tested on: Tau phosphorylation at Ser396 (pSer396)
Protocol Details: Tau phosphorylation assay (pSer396 ELISA / western blot) in SH-SY5Y cells
Format: cell-based, human
Run Parameters: Homo sapiens; SH-SY5Y cells, overnight (16-18 h) exposure; read-out: pSer396 Tau EC50
The following molecules are listed with their measured pEC50 values.
# pEC50: negative log10 of molar concentration; output just the value

Item Cc1ncc(-c2ccc3cnc(NC(=O)CN4C[C@H]5C[C@@H]4CO5)cc3c2)s1 has what recorded pEC50?
5.51

Item Cn1cc(-c2ccc3cnc(NC(=O)CN4C[C@@H]5C[C@H]4CO5)cc3c2)cn1 has what recorded pEC50?
6.11

Item CN1CCCN(CC(=O)Nc2cc3cc(-c4cnn(C)c4)ccc3cn2)CC1 has what recorded pEC50?
6.26

Item [2H]C([2H])([2H])n1cc(-c2cc(F)c3cnc(NC(=O)CN4CCCCC4)cc3c2)cn1 has what recorded pEC50?
6.20

Item CN1CCn2ncc(-c3ccc4cnc(NC(=O)C5CC(F)(F)C5)cc4c3)c2C1 has what recorded pEC50?
6.26

Item Cn1ncc(-c2ccc3cnc(NC(=O)C4CC5(C4)CN(C(=O)OC(C)(C)C)C5)cc3c2)c1CN1CCCCC1 has what recorded pEC50?
6.46

Item Cc1nnc(-c2ccc3cnc(NC(=O)CN4CCCCC4)cc3c2)s1 has what recorded pEC50?
6.56

Item Cn1ncc(-c2ccc3cnc(NC(=O)C4CCN(C5COC5)CC4)cc3c2)c1CN1CCCCC1 has what recorded pEC50?
6.25

###

Test system: secreted β-amyloid 40 (Aβ40) peptide
Protocol Details: Secreted β-amyloid 40 (Aβ40) peptide in APP overexpressing SH-SY5Y-APP cells
Type: cell-based
Run Parameters: Homo sapiens, overnight (16-18 hours)
Readout: pIC50
# pIC50: negative log10 of molar concentration; output just the value

[[record]]
compound = "Cn1cncc1-c1ccc2cnc(NC(=O)C3CCN(CCC(F)(F)F)CC3)cc2c1 [Compound 262]"
numeric_value = 5.66

[[record]]
compound = "Cn1cc(-c2ccc3cnc(NC(=O)C4CCN(CC(C)(C)F)CC4)cc3c2)cn1 [Compound 85]"
numeric_value = 5.89


Item Cn1cc(-c2ccc3cnc(NC(=O)C4CCN(C5CC5)CC4)cc3c2)cn1 [Compound 76] has what recorded pIC50?
5.92

Item Cn1cc(-c2ccc3cnc(NC(=O)C4CCN(CCF)CC4)cc3c2)cn1 [Compound 81] has what recorded pIC50?
5.64

Item Cn1cc(-c2ccc3cnc(NC(=O)C4CCN(CCC(F)(F)F)CC4)cc3c2)nn1 [Compound 271] has what recorded pIC50?
5.34

###

The following compounds are listed with their measured log10(EC50) values.
Tested System: recombinant GSK3β kinase (Homo sapiens (Human), UniProt P49841)
Protocol Details: GSK3β kinase assay (Ser/Thr 09 peptide Z-lyte FRET);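 also: kinase activity read as coumarin to fluorescein emission ratio, 11-point threefold dilutions from 10 µM to 0.0003 µM in duplicate, unphosphorylated and phosphorylated peptide as 0% and 100% controls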
Run Parameters: 46 μM ATP, 1 h room temperature
The common logarithm of EC50 in nM is what is listed.

Example entries begin here.
[[record]]
structure_as_smiles = "CC(F)(F)CN1CCC(C(=O)Nc2cc3cc(-c4cnco4)ccc3cn2)CC1"
numeric_value = 1.99

[[record]]
structure_as_smiles = "Cn1cc(-c2ccc3cnc(NC(=O)CN4CCN(C5CC5)CC4)cc3c2)cn1"
numeric_value = 1.46

[[record]]
structure_as_smiles = "C[C@H]1CN(CC(=O)Nc2cc3cc(-c4cnn(C)c4)ccc3cn2)CCO1"
numeric_value = 1.85


Item Cc1ncc(-c2ccc3cnc(NC(=O)[C@H]4C[C@H](N5CCOCC5)C4)cc3c2)o1 has what recorded log10(EC50)?
0.90

Item CC(C)CN1CCN(CC(=O)Nc2cc3cc(-c4cnn(C)c4)ccc3cn2)CC1 has what recorded log10(EC50)?
2.02

Item CC(C)CN1CCC(C(=O)Nc2cc3cc(-c4cnn(C)c4CN4CCCCC4)ccc3cn2)CC1 has what recorded log10(EC50)?
0.95

###

The following compounds are listed with their measured log10(EC50) values.
Tested on: Tau phosphorylation at Ser396 (pSer396)
Protocol Details: Tau phosphorylation assay (pSer396 ELISA / western blot) in SH-SY5Y cells;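 also: EC50 for reduction of Tau pSer396 in lysed cells, measured by colorimetric ELISA or chemiluminescent western blot, both using the same pSer396 antibody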
Assay type: cell-based, human
Run Parameters: Homo sapiens; SH-SY5Y cells, overnight (16-18 h) exposure; read-out: pSer396 Tau EC50
The common logarithm of EC50 in nM is what is listed.

[[record]]
compound = "CN(CC(=O)Nc1cc2cc(-c3cnc4n3CCNC4)ccc2cn1)C1CCC1"
tested_system = "Tau phosphorylation at Ser396 (pSer396)"
numeric_value = 2.99


Item Cc1nnc(-c2ccc3cnc(NC(=O)[C@H]4CC[C@H](CO)CC4)cc3c2)s1 has what recorded log10(EC50)?
2.29

Item O=C(Nc1cc2cc(-c3cncs3)ccc2cn1)C1CCN(C2COC2)CC1 has what recorded log10(EC50)?
2.94

Item Cc1ncc(-c2ccc3cnc(NC(=O)[C@H]4CC[C@H](N(C)C)CC4)cc3c2)o1 [Compound 1017] has what recorded log10(EC50)?
2.51

Item COC1CCN(CC(=O)Nc2cc3cc(-c4cnn(C)c4)ccc3cn2)CC1 has what recorded log10(EC50)?
2.63

Item Cn1cc(-c2ccc3cnc(NC(=O)C4CC5(C4)CN(C(=O)C(F)(F)F)C5)cc3c2)cn1 has what recorded log10(EC50)?
2.64

The reported numbers originate from patent US10287267B2.
